targetOrSystem: T1, Human CD3eg linker (human)
T1 construct: Single-chain construct; also called recombinant human CD3
T1 chain: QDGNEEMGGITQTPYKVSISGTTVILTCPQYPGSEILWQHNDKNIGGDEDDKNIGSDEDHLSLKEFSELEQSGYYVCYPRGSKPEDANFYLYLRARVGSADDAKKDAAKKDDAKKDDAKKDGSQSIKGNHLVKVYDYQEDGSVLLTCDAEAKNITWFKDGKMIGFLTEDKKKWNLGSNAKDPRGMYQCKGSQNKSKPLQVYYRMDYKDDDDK
testMethodNotes: SPR; fold vs parent H183/L072
propertyLabel: fold change of affinity (fold)
The response must be a number in fold with no trailing unit.

See these solved cases before continuing.
H183/L072 VL F96Q (antibody, name in Kabat numbering, V domains shown) VH: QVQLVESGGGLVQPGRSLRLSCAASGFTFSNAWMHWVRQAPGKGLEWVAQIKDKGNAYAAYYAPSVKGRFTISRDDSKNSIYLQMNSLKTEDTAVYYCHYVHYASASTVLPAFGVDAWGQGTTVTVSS VL: DIVMTQSPLSLPVTPGEPASISCQASQELVHMNRNTYLHWYQQKPGQAPRLLIYKVSNRFPGVPDRFSGSGSGTDFTLKISRVEAEDVGVYYCAQGTSVPQTFGQGTKLEIK
0
H183/L072 VL Q27D (antibody, name in Kabat numbering, V domains shown) VH: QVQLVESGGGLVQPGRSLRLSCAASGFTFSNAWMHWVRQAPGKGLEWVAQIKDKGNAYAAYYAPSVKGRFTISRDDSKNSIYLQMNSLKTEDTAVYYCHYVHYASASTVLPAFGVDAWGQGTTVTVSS VL: DIVMTQSPLSLPVTPGEPASISCQASDELVHMNRNTYLHWYQQKPGQAPRLLIYKVSNRFPGVPDRFSGSGSGTDFTLKISRVEAEDVGVYYCAQGTSVPFTFGQGTKLEIK
1.1
H183/L072 VL Q27G (antibody, name in Kabat numbering, V domains shown) VH: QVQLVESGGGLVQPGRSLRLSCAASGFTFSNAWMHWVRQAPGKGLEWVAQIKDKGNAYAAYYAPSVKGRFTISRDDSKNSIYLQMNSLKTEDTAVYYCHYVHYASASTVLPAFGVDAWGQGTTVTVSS VL: DIVMTQSPLSLPVTPGEPASISCQASGELVHMNRNTYLHWYQQKPGQAPRLLIYKVSNRFPGVPDRFSGSGSGTDFTLKISRVEAEDVGVYYCAQGTSVPFTFGQGTKLEIK
1
H183/L072 VL P95K (antibody, name in Kabat numbering, V domains shown) VH: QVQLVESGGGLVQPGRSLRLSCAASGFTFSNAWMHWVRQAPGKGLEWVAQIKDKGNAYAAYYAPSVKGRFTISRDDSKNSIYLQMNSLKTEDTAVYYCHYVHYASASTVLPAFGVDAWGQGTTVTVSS VL: DIVMTQSPLSLPVTPGEPASISCQASQELVHMNRNTYLHWYQQKPGQAPRLLIYKVSNRFPGVPDRFSGSGSGTDFTLKISRVEAEDVGVYYCAQGTSVKFTFGQGTKLEIK
0

Please look at the following binder next.
Please report the measured fold change of affinity for H183/L072 VL S26Q (antibody, name in Kabat numbering, V domains shown) VH: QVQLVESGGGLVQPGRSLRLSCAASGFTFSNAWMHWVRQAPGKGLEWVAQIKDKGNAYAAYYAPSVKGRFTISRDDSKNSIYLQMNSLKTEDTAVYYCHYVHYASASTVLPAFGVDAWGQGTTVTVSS VL: DIVMTQSPLSLPVTPGEPASISCQAQQELVHMNRNTYLHWYQQKPGQAPRLLIYKVSNRFPGVPDRFSGSGSGTDFTLKISRVEAEDVGVYYCAQGTSVPFTFGQGTKLEIK
0.8
